Test system: BT-549 breast
procedureText: NCI tumour cell line growth inhibition, 48 h
Please provide measured TGI for the entries that follow.

Ask: Which TGI value belongs to O=C(C1OC1c1ccc([N+](=O)[O-])cc1)C12CC3CC(CC(C3)C1)C2 (stereo unspecified) ?
Result: 40.2 µM

Ask: Which TGI value belongs to Cc1n[nH]c(=O)n1N=C(c1ccccc1)c1ccccc1 ?
Result: > 100 µM

Ask: Which TGI value belongs to S=C1C=C(c2ccccc2)Sc2ccccc2N1 ?
Result: > 100 µM

Ask: Which TGI value belongs to CC(C)(C)OC(=O)NC(Cc1ccc([N+](=O)[O-])cc1)C(=O)NC(CCCCNC(=O)OCc1ccccc1)C(=O)ON1C(=O)CCC1=O (stereo unspecified) ?
Result: > 100 µM

Ask: Which TGI value belongs to c1ccc(-c2nc(N3CCNCC3)c3nc(-c4ccccc4)oc3n2)cc1 ?
Result: 3.24 µM

Ask: Which TGI value belongs to Oc1ccc2ccccc2c1N=Nc1ccccc1 ?
Result: > 100 µM

Ask: Which TGI value belongs to O=C(O)CCC1(c2ccccc2)NC(=O)NC1=O (stereo unspecified) ?
Result: > 100 µM

Ask: Which TGI value belongs to CO[C@H]1O[C@@H]2CO[C@@H](c3ccccc3)O[C@H]2C[C@]12CCC/C=C\CO2 ?
Result: 23.9 µM

Ask: Which TGI value belongs to CC1(C)CCc2c(c(N=Nc3ccccc3)c3ccccc3c2O)O1 ?
Result: > 100 µM

Ask: Which TGI value belongs to CC/C(Cl)=N\OC(=O)Nc1ccc(C#N)cc1 ?
Result: 28.3 µM

Ask: Which TGI value belongs to c1ccc(-c2cc(-c3cc(-c4ccccc4)n(-c4ccccc4)n3)nn2-c2ccccc2)cc1 ?
Result: > 100 µM

Ask: Which TGI value belongs to COCN1C(=O)[C@@H]2CCCN2C(=O)c2cc([N+](=O)[O-])ccc21 ?
Result: > 100 µM

Ask: Which TGI value belongs to CC[C@H](C)[C@H](NC(=O)C12C3C4C1C1C2C3C41NC(C)=O)C(=O)N(C)[C@H](C[C@@H](OC(C)=O)c1nc(C(=O)N[C@@H](Cc2ccccc2)C[C@H](C)C(=O)OC)cs1)C(C)C (stereo partly specified) ?
Result: 3.84 µM

Ask: Which TGI value belongs to CCCCCCCSCC(O)COC(c1ccccc1)(c1ccccc1)c1ccccc1 (stereo unspecified) ?
Result: > 100 µM

Ask: Which TGI value belongs to Cn1cnc([N+](=O)[O-])c1Sc1ncnc2c1ncn2C1OC(CO)C(O)C1O (stereo unspecified) ?
Result: > 100 µM

Ask: Which TGI value belongs to Nc1c(C(=O)c2ccccc2)[nH]c(NCc2ccccc2)c1C(=S)Nc1ccccc1 ?
Result: > 100 µM
